System: Human platelet cyclic AMP phosphodiesterase
Assay: Cyclic AMP phosphodiesterase assay (human platelet)
Format: biochemical
Details: human platelet phosphodiesterase, 1 μM cyclic AMP as substrate
pIC50: −log10 of the molar value.
Entry flag: Criterion met if pIC50 reaches 8; Criterion not met if it does not.

CN(C(=O)COc1ccc2c(c1)CN1CC(=O)NC1=N2)C1CCCCC1
Criterion not met
C[C@@H]1C(=O)NC2=Nc3ccc(OCCCC(=O)N(C)C4CCCCC4)cc3CN21
Criterion met
CN(C(=O)CCCOc1ccc2c(c1)CN1CC(=O)NC1=N2)c1ccccc1
Criterion not met
CCN(C(=O)CCCOc1ccc2c(c1)CN1CC(=O)NC1=N2)C1CCCCC1
Criterion met
O=C1CN2Cc3cc(OCCCC(=O)N(C4CCCCC4)C4CCCCC4)ccc3N=C2N1
Criterion met
CN(C(=O)CCCOc1ccc2c(c1)CN1C(=N2)NC(=O)[C@@H]1CO)C1CCCCC1
Criterion not met
